Property: pIC50; scope: individual compounds
target: recombinant JAK1 enzyme (Homo sapiens); construct: 8 nM of recombinant JAK1 enzyme (Insect expressed: V866-K1155); assay: JAK1 Kinase Assay (luciferase-luciferin-coupled chemiluminescence, ATP consumption); details: 8 nM JAK1 (V866-K1155), 30 μM IRS-1 peptide (Y608), 2 μM ATP, 2 hours ambient temperature, KinaseGlo; read-out: JAK1 IRS-1tide Chemilum (IC50)
Sequence (P23458 865-1154 limits assumed): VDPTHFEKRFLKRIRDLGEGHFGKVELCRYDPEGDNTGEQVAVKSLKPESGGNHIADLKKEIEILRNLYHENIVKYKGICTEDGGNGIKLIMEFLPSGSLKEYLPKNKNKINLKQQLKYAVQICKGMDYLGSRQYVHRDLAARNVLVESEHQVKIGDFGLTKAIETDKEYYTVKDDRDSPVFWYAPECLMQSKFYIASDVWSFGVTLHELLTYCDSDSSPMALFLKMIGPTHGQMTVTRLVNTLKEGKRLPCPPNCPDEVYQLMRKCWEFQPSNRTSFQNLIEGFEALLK
pIC50: −log10 of the molar value.

- compoundString: "COC(=O)c1ccc(-c2nnc(Nc3cccc(C(F)(F)F)c3)c3cccnc23)cc1"
  pIC50: "6.00 to 6.30"
- compoundString: "COC(=O)c1ccc(-c2nnc(Nc3cc(C)cc(C(F)(F)F)c3)c3ccccc23)cc1"
  pIC50: "≥ 6.82"
- compoundString: "COC(=O)c1ccc(-c2nnc(Nc3cc(C(F)(F)F)cc(C(F)(F)F)c3)c3ccccc23)cc1"
  pIC50: "6.30 to 6.82"
- compoundString: "COC(=O)c1ccc(-c2nnc(Nc3cccc(C)c3)c3ccccc23)cc1"
  pIC50: "6.00 to 6.30"
- compoundString: "COC(=O)c1ccc(-c2nnc(Nc3cccc(C(F)(F)F)c3)c3ccccc23)cc1"
  pIC50: "≥ 6.82"
- compoundString: "O=C1NCCN1c1ccc(-c2nnc(Nc3cc(C(F)(F)F)cc(C(F)(F)F)c3)c3ccccc23)cc1"
  pIC50: "≥ 6.82"
- compoundString: "FC(F)(F)c1cc(Nc2nnc(-c3ccc4nn[nH]c4c3)c3ccccc23)cc(C(F)(F)F)c1"
  pIC50: "5.70 to 6.00"
- compoundString: "FC(F)(F)c1cc(Nc2nnc(-c3ccc(-c4cc[nH]n4)cc3)c3ccccc23)cc(C(F)(F)F)c1"
  pIC50: "6.30 to 6.82"
- compoundString: "COC(=O)c1ccc(-c2nnc(Nc3ccc(F)c(C(F)(F)F)c3)c3ccccc23)cc1"
  pIC50: "6.00 to 6.30"
- compoundString: "COC(=O)c1ccc(-c2nnc(Nc3cc(NCCN(C)C)cc(C(F)(F)F)c3)c3ccccc23)cc1"
  pIC50: "6.30 to 6.82"
- compoundString: "COC(=O)c1ccc(-c2nnc(Nc3ccc(Cl)c(C(F)(F)F)c3)c3ccccc23)cc1"
  pIC50: "6.00 to 6.30"
- compoundString: "COC(=O)c1ccc(-c2nnc(Nc3cccc(Cl)c3)c3ccccc23)cc1"
  pIC50: "6.30 to 6.82"
- compoundString: "CNc1nnc(-c2ccc(-c3nnc(Nc4cc(C(F)(F)F)cc(C(F)(F)F)c4)c4ccccc34)cc2)s1"
  pIC50: "4.52 to 5.70"
- compoundString: "COC(=O)c1ccc(-c2nnc(Nc3cc(C)cc(Br)c3)c3ccccc23)cc1"
  pIC50: "6.30 to 6.82"
- compoundString: "COC(=O)c1ccc(-c2nnc(Nc3ccc(Cl)cc3)c3ccccc23)cc1"
  pIC50: "5.70 to 6.00"
- compoundString: "Cc1cc(-c2ccc(-c3nnc(Nc4cc(C(F)(F)F)cc(C(F)(F)F)c4)c4ccccc34)cc2)n[nH]1"
  pIC50: "6.00 to 6.30"
- compoundString: "COC(=O)c1ccc(-c2nnc(Nc3cc(CCN(C)C)cc(C(F)(F)F)c3)c3ccccc23)cc1"
  pIC50: "6.00 to 6.30"
- compoundString: "COC(=O)c1ccc(-c2nnc(Nc3cc(Br)cc(C(F)(F)F)c3)c3ccccc23)cc1"
  pIC50: "6.30 to 6.82"
- compoundString: "COC(=O)c1ccc(-c2nnc(Nc3cc(CCCN(C)C)cc(C(F)(F)F)c3)c3ccccc23)cc1"
  pIC50: "≥ 6.82"
- compoundString: "COC(=O)c1ccc(-c2nnc(Nc3cccc(OC(F)(F)F)c3)c3ccccc23)cc1"
  pIC50: "6.30 to 6.82"
- compoundString: "COC(=O)c1ccc(-c2nnc(Nc3cc(F)cc(C(F)(F)F)c3)c3ccccc23)cc1"
  pIC50: "6.30 to 6.82"
- compoundString: "COC(=O)c1ccc(-c2nnc(Nc3cc(N4CCN(C)CC4)cc(C(F)(F)F)c3)c3ccccc23)cc1"
  pIC50: "5.70 to 6.00"
- compoundString: "COC(=O)c1ccc(-c2nnc(Nc3cc(Cl)cc(C(F)(F)F)c3)c3ccccc23)cc1"
  pIC50: "≥ 6.82"
- compoundString: "COC(=O)c1ccc(-c2nnc(Nc3cc(OC)cc(C(F)(F)F)c3)c3ccccc23)cc1"
  pIC50: "6.00 to 6.30"
- compoundString: "COC(=O)c1ccc(-c2nnc(Nc3cccc(C(F)(F)F)c3)c3cnccc23)cc1"
  pIC50: "6.30 to 6.82"
- compoundString: "COC(=O)c1ccc(-c2nnc(Nc3cccc(C(C)C)c3)c3cnccc23)cc1"
  pIC50: "6.00 to 6.30"
- compoundString: "O=Cc1ccc(-c2nnc(Nc3cc(C(F)(F)F)cc(C(F)(F)F)c3)c3ccccc23)cc1"
  pIC50: "4.52 to 5.70"
- compoundString: "COC(=O)c1ccc(-c2nnc(Nc3cccc(N(C)C)c3)c3ccccc23)cc1"
  pIC50: "4.52 to 5.70"
- compoundString: "COC(=O)c1ccc(-c2nnc(Nc3cccc(C(C)C)c3)c3ccccc23)cc1"
  pIC50: "6.30 to 6.82"
- compoundString: "COC(=O)c1ccc(-c2nnc(Nc3ccc(OC)c(C(F)(F)F)c3)c3ccccc23)cc1"
  pIC50: "6.00 to 6.30"
- compoundString: "CNC(=O)c1ccc(-c2nnc(Nc3cc(C(F)(F)F)cc(C(F)(F)F)c3)c3ccccc23)cc1"
  pIC50: "6.30 to 6.82"
- compoundString: "COC(=O)c1ccc(-c2nnc(Nc3cc(C(F)(F)F)cc(C(F)(F)F)c3)c3ccccc23)s1"
  pIC50: "4.52 to 5.70"
